- protocol description: NCI Yeast Anticancer Drug Screen. Data for the bub3 strain (AID 167)
- measurement conditions: S. cerevisiae bub3 mutant strain, at 3.7 µM, stronger effect = higher value
About 79,000 compounds went through this panel and 15% of them were active in at least one assay; those are over-represented in the sample as a whole.
// reported growth inhibition per item
Numbers only; they are read as %.

O=C1c2ccccc2CCC1(Br)Br | 15
CN(Cc1cnc2nc(N)nc(N)c2n1)c1ccc(C(=O)NC(CCC(=O)O)C(=O)O)c2ccccc12 (stereo not drawn) | -7
O=[N+]([O-])c1c(/C=N/Nc2ccccc2)oc(-c2ccc3c(c2)OCO3)c1-c1ccc2c(c1)OCO2 | -8
Cc1cc(O)c2c(c1)C(=O)C=C(Br)C2=O | 86
BrCc1ccccc1C(c1ccccc1)c1ccccc1 | 56

-- ask Could you tell me which growth inhibition is on file for `Cc1cc(C(C)(C)CC(C)(C)C)cc(O)c1O` ?
-- reply 19

-- ask For `O=C(NC(=S)Nc1ccccn1)c1ccccc1` , what is its reported growth inhibition?
-- reply -22

-- ask Can you share its growth inhibition? I mean this molecule: `N#C/C(=C/N1C(=O)/C(=C/c2ccc([N+](=O)[O-])cc2)SC1=S)c1nc2ccccc2s1`
-- reply 4

====

- protocol description: NCI Yeast Anticancer Drug Screen. Data for the sgs1 mgt1 strain (AID 161);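 note: 0% = growth of cultures given vehicle only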
- measurement conditions: S. cerevisiae sgs1 mgt1 strain, at 50.0 µM (retest, dose inferred, filed as 5.0)
Compounds without any hit were thinned out: in the full panel of roughly 79,000, 15% have a hit. The source made the active and inactive calls. Rule as the data show it: active = growth inhibition above about 70%; inactive = the rest.
// allowed return values: YES = active, NO = inactive

-- ask Assay outcome for `CCOC(=O)Nc1ccc2c(c1)Cc1ccccc1-2` : what was it?
-- reply NO

====

- protocol description: NCI Yeast Anticancer Drug Screen. Data for the mgt1 strain (AID 153)
- measurement conditions: S. cerevisiae mgt1 mutant growth inhibition; at 33.0 µM
The panel holds about 79,000 compounds, 15% with a hit somewhere; the sample as a whole holds those more often. Activity calls are given as the source filed them. Cut-off read from the data, not from the text of the source: active = growth inhibition above about 70%; inactive = the rest.
# output must be one of YES = active, NO = inactive

// known answers, use as guide
O=C(O)c1cccc2cccc(-c3c4ccc(=O)cc-4oc4cc(O)ccc34)c12 | YES
O=C1NC(c2c(Cl)cccc2Cl)Nc2ccccc21 (stereo unspecified) | NO
O=c1[nH]c2ccccc2c2nc3ccccc3n12 | NO
COc1cccc(C(c2cc3c(cc2O)OCO3)N2CCOCC2)c1OC (stereo unspecified) | NO
O=[N+]([O-])c1cc(S(=O)(=O)Nc2ccccc2)ccc1Cl | YES

Now for another entry.
-- ask Could you please tell me the result logged for `CCOC(=O)[C@]1(Br)CC[C@@]1(Br)C(=O)OCC` in this assay?
-- reply YES

====

- protocol description: NCI Yeast Anticancer Drug Screen. Data for the wt2 strain (AID 169);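 note: 0% = growth of vehicle-treated yeast cultures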
- measurement conditions: S. cerevisiae wt2 strain growth inhibition; at 1.2 µM; stronger effect = higher value
About 79,000 compounds went through this panel and 15% of them were active in at least one assay; those are over-represented in the sample as a whole.
property name: growth inhibition (%)
Reply numerically in %, unit not repeated.

Consider the following illustrative entries.
CCn1ncc(N=O)c1N | 6
C/C(=N\NC(=S)NNC(=S)N(C)c1ccccc1)c1ccccn1 | 9
Cc1cc(O)c2c(c1)C(=O)C=C(Br)C2=O | -4

-- ask # input compound: CC1=CCCC2C1(C)CCC(C)C2(C)Cc1cc(O)ccc1O (stereo not given) ; wanted: its growth inhibition
-- reply -28

-- ask Entry CN(Cc1cnc2nc(N)nc(N)c2n1)c1ccc(C(=O)NC(CCC(=O)O)C(=O)O)c2ccccc12 (stereo not given) : reported growth inhibition = ?
-- reply -50

-- ask Bench note: what growth inhibition did `Cc1ccc(S(=O)(=O)N(C)c2ccc(Cl)cc2C2=NCCc3ccccc32)cc1` show?
-- reply -25
